tested on: cardiac sympathetic neurons of the isolated rat heart; assay: in vitro; details: rat
Assignment: determine reported Major Clearance Rate T1/2 for the given compounds.
Field format: number, assumed h, no unit text.

Fill in Major Clearance Rate T1/2 for record N=[11C](N)NCCc1cccc(F)c1 [II-1, [^11C]meta-fluorophenethylguanidine] 1.93

Answer with the recorded Major Clearance Rate T1/2 for the compound listed here: C[C@H](N[11C](=N)N)[C@H](O)c1cccc(O)c1 [I-9, N-[^11C]guanyl-(−)-metaraminol] 20.18

// fetch Major Clearance Rate T1/2 given entry N=[11C](N)NCCc1ccc(O)cc1 [I-5, [^11C]para-hydroxyphenethylguanidine] 48.13

For N=[11C](N)NCCc1cccc(I)c1 [III-1, [^11C]meta-iodophenethylguanidine] , write its Major Clearance Rate T1/2. 2.38

Give the reported value of Major Clearance Rate T1/2 for this record: N=[11C](N)NCCc1ccccc1 [I-1, [^11C]phenethylguanidine] 3.33

Using the record for N=[11C](N)NCCc1ccc(O)c(O)c1 [I-6, [^11C]3,4-dihydroxyphenethylguanidine] , state its measured Major Clearance Rate T1/2. 23.52

Check the records and state Major Clearance Rate T1/2 for COc1ccc(CCN[11C](=N)N)cc1 [I-3, [^11C]para-methoxy-phenethylguanidine] 2.28

Using known records, supply Major Clearance Rate T1/2 for N=[11C](N)NC[C@H](O)c1ccccc1 [I-2, [^11C](−)-β-hydroxyphenethylguanidine] 19.3

Tell us which Major Clearance Rate T1/2 value is on record for N=[11C](N)NCCc1cc(O)ccc1F [II-5] 20.12

Tell us which Major Clearance Rate T1/2 value is on record for N=[11C](N)NCCc1ccccc1F [II-3, [^11C]ortho-fluorophenethylguanidine] 2.25

Output measured Major Clearance Rate T1/2 for this item: N=[11C](N)NCC(O)c1cccc(O)c1 (centres unmarked) [I-7, N-[^11C]guanyl-meta-octopamine] 216.67

Could you please provide reported Major Clearance Rate T1/2 for N=[11C](N)NCCc1ccc(F)cc1 [II-2, [^11C]para-fluorophenethylguanidine] ? Thanks! 4.43

----------
test system: cardiac sympathetic neurons of the isolated rat heart; experiment: in vitro; settings: rat
VALUE_TYPE: half-life

State, for cardiac sympathetic neurons of the isolated rat heart, measured half-life of the compound listed here: CNC[C@H](O)c1ccc(O)c(O)c1 [EPI, [^11C]epinephrine, reference compound] 26.3 h

Jot down half-life (cardiac sympathetic neurons of the isolated rat heart) of CNC[C@H](O)c1cccc(O)c1 [PHEN, [^11C]phenylephrine, reference compound] . 1.63 h

State the measured half-life (cardiac sympathetic neurons of the isolated rat heart) of NC[C@H](O)c1ccc(O)c(O)c1 [NE, [^3H]norepinephrine, reference compound] > 16.7 h
